Provide the reported Cmax of each item.
Assay: Cmax in Sprague-Dawley rat plasma at 1 umol/kg, it by HPLC-MS/MS method
Type: ADME, cell-free
Design: dose 1 umol/kg
Settings: inhaled or intranasal
Quick note: give the figure in nM, leave out the unit.

For the molecule `C[C@]12C=CC(=O)C=C1[C@@H](F)C[C@H]1[C@@H]3C[C@H]4CN(Cc5cccc(Cl)c5)C[C@@]4(C(=O)CO)[C@@]3(C)C[C@H](O)[C@@]12F` , what Cmax is on record?
110

Next entry: CCCC1O[C@@H]2C[C@H]3[C@@H]4CCC5=CC(=O)C=C[C@]5(C)[C@H]4[C@@H](O)C[C@]3(C)[C@]2(C(=O)CO)O1 (some centres undefined) [BUDESONIDE]
127

Next molecule: `C[C@]12C=CC(=O)C=C1[C@@H](F)C[C@H]1[C@@H]3C[C@H]4CN(Cc5cccc(Cl)c5)C[C@@]4(C(=O)CO)[C@@]3(C)C[C@H](O)[C@@]12F.Cl`
90

Follow-up entry: C[C@@H]1C[C@H]2[C@@H]3C[C@H](F)C4=CC(=O)C=C[C@]4(C)[C@@]3(F)[C@@H](O)C[C@]2(C)[C@@]1(OC(=O)c1ccco1)C(=O)SCF [FLUTICASONE FUROATE]
45
